All figures here come from PubChem BioAssay (EPA / NIEHS).

target: PGR (gene 5241) (UniProt P06401); assay: TOX21_PR_BLA_Followup_Agonist_ratio: Tox21 HEK293 Progesterone Receptor (PR) Agonism Beta-lactamase Follow-Up Assay, Ratio (AID 2283933)
Sequence (P06401 whole entry, looked up): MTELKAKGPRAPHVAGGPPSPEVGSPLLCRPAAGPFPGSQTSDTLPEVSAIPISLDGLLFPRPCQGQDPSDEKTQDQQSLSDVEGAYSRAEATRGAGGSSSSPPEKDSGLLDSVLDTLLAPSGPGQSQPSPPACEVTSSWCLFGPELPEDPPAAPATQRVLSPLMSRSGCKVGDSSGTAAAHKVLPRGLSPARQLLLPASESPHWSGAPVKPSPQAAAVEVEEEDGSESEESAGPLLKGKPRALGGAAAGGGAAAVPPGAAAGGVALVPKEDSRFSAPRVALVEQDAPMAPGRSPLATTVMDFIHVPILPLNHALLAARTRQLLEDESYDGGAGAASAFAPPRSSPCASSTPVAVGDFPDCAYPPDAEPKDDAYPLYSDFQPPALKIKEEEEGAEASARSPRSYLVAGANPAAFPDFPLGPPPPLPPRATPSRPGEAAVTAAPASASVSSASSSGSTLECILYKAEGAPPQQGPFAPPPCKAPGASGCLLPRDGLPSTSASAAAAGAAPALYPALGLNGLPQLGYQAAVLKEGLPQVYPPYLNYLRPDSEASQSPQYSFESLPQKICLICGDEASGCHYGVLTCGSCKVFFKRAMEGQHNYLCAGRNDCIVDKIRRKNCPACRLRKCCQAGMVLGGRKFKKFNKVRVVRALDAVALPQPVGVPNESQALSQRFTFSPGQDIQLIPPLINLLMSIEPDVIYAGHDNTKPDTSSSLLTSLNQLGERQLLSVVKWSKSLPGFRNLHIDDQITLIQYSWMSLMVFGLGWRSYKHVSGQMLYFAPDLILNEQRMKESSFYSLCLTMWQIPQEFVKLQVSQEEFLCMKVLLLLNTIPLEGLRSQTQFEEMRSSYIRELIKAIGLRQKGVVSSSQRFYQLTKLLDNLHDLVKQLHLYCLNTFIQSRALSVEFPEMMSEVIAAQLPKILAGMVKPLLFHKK
Results filed as inconclusive are left out. Activity calls are given as the source filed them. The calls were made as follows: active = hit-call score of the fitted dose curve at least 0.9, where 1 is the maximum; inconclusive = response in the unintended direction; inactive = score below 0.9.

- compound: "C=C1C[C@@H]2[C@H](CC[C@]3(C)C(=O)CC[C@@H]23)[C@@]2(C)C=CC(=O)C=C12"
  AC50: "inactive"
- compound: "CC(=O)O[C@H]1CC[C@@]2(C)C(=CC[C@@H]3[C@@H]2CC[C@]2(C)C(=O)CC[C@@H]32)C1"
  AC50: "inactive"
- compound: "CCC(=O)O[C@@H]1C=C2CCC3C(CCC4(C)C3CC[C@@H]4OC(=O)CC)C2CC1 (some centres undefined)"
  AC50: "4.48 µM (active)"
- compound: "C[C@]12Cc3nonc3C[C@@H]1CC[C@@H]1[C@@H]2CC[C@@]2(C)[C@H]1CC[C@]2(C)O"
  AC50: "6.11 µM (active)"
